Target: T1, human sortilin stably expressed on HEK 293 cells (HEK-SORT1 cells) (human, UniProt Q99523 78-831)
T1 sequence (looked up): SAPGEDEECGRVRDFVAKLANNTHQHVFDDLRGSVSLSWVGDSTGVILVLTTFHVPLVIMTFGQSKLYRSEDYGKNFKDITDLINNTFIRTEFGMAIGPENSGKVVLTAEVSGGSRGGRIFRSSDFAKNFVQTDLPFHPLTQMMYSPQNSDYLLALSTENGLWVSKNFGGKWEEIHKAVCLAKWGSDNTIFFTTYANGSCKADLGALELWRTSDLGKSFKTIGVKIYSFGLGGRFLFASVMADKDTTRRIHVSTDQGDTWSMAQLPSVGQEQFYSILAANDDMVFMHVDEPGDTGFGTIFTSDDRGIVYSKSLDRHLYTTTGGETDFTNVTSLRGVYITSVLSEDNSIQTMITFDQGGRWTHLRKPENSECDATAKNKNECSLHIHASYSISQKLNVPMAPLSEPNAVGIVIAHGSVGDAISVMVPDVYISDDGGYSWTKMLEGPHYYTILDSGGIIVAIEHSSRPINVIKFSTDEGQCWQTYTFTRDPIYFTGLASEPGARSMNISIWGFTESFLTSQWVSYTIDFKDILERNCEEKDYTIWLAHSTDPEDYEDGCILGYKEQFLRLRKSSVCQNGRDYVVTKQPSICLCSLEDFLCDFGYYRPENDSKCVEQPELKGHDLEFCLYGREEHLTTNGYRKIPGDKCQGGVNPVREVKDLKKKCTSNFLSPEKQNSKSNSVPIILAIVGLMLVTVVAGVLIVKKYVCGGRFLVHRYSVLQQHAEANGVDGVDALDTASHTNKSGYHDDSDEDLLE
Test: cell-based or functional assay
Ends that are not written are not given here.
Entries and their Mean Fluorescence Intensity (MFI), uptake 37C-4C, at 22 nM values follow.
Supply the numeric figure in MFI, leaving out any unit text.

Illustrative cases are given below, each with its answer.
binder	recorded.measurement
KPPPAGSSPGLYENKPRRPYIL (not fully specified (residue 1); also: Cy3 label attached by BCN click to the azide) [Compound 17-AH-1492, Cy3-labeled extended neurotensin (eNT, …)]	266
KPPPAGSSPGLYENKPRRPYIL (not fully specified (residue 1); also: X side chain clicked via BCN (triazole) and 6-aminohexanol linker to 5' end of oligonucleotide CCAGGCTGGTTATGACTCAG (MOE, 3'-Cy3))	122
KPAPSGPSPGLYENKPRRPYIL (not fully specified (residue 1); also: X side chain clicked via BCN (triazole) and 6-aminohexanol linker to 5' end of oligonucleotide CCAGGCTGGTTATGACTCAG (MOE, 3'-Cy3))	130
KAGMSGASAGLYENKPRRPYIL (not fully specified (residue 1); also: X side chain clicked via BCN (triazole) and 6-aminohexanol linker to 5' end of oligonucleotide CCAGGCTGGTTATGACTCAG (MOE, 3'-Cy3))	85

Okay, next one:
Measured Mean Fluorescence Intensity (MFI), uptake 37C-4C, at 22 nM of KAGSIKPPPAGSSPGLYENKPRRPYIL (not fully specified (residue 1); also: X side chain clicked via BCN (triazole) and 6-aminohexanol linker to 5' end of oligonucleotide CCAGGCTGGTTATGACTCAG (MOE, 3'-Cy3)) : 208
